meta.source: the RNAGym collection of RNA variant scans (doi:10.1073/pnas.2313332121)

Record form. Attribute: polymerase ribozyme fitness (log ratio). Fill in for each entry.
B1: TPR t1 (parent)
chain: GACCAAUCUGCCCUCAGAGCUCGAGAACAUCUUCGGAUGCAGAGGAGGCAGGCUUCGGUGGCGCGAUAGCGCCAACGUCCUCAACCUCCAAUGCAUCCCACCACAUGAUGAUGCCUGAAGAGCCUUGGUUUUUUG

- Variants of: B1
- Assay info: polymerase ribozyme fitness, log enrichment relative to wild type (log ratio); higher = more active; in vitro selection for triplet polymerase activity

Given G47A G60U U133G , state its recorded polymerase ribozyme fitness (log ratio). -0.844

# query: polymerase ribozyme fitness (log ratio) of entry C13G G120C 0.441

Name the recorded polymerase ribozyme fitness (log ratio) for G61U C101A U125C . -4.61

Find the recorded polymerase ribozyme fitness (log ratio) belonging to A2C C15U C104U and report it. -2.51

Query: polymerase ribozyme fitness (log ratio); subject: U9A U14A C64U 0.0854

Item C20A A29G G36U has what recorded polymerase ribozyme fitness (log ratio)? -6.08

Given G61U U78C C89G , state its recorded polymerase ribozyme fitness (log ratio). -1.23

Can you share its polymerase ribozyme fitness (log ratio)? I mean this variant: C12A G39C G47A A66U -3.14

Query (variant): C15G G107A ; field requested: polymerase ribozyme fitness (log ratio) -5.32

Can you look up the measured polymerase ribozyme fitness (log ratio) of G10U C82G C85U G120C for me? 0.866

Find the recorded polymerase ribozyme fitness (log ratio) belonging to C8A U133G and report it. 0.0303

Can you look up the measured polymerase ribozyme fitness (log ratio) of C72A G93C C102A U106A G110A U125A G127A for me? -6.51

Quick check: polymerase ribozyme fitness (log ratio) of A43U G44A A68U C70A C115A C124A U125C U132A ? -6.95

Which polymerase ribozyme fitness (log ratio) value is on record for U21A U130A ? -0.5

Endpoint output: polymerase ribozyme fitness (log ratio) of C11U G60C A84U . Value? -0.912

Please report the recorded polymerase ribozyme fitness (log ratio) for U54A C72U C102G U112G . -5.88

So what's the measured polymerase ribozyme fitness (log ratio) for this one? C79G G93U C115G -4.32

Entry G10A C13U U30G A46C C72U C123G : reported polymerase ribozyme fitness (log ratio) = ? -6.25

Any idea what its polymerase ribozyme fitness (log ratio) is? The variant is C101A G107U U112G -6.92

Requested field: polymerase ribozyme fitness (log ratio). Item: G39U A84U -1.03

# lookup: polymerase ribozyme fitness (log ratio) of U81A A105U U132C -2.04

# polymerase ribozyme fitness (log ratio) lookup, item C15A G47U G127C -5.43

Returns the measured polymerase ribozyme fitness (log ratio) for the input variant. Input: C56A U129G -2.29

Dear colleague, I am looking for the recorded polymerase ribozyme fitness (log ratio) of the following variant: G42C C49A U92C G117A G122A -4.11

Record request: polymerase ribozyme fitness (log ratio) value, item C12G A16U G45U C89G U129C -4.69

Request the reported polymerase ribozyme fitness (log ratio) associated with A16C U87A -2.49

Item under review: C12A C28U G44A C49G C72U C86A . Reported polymerase ribozyme fitness (log ratio)? -4.58

Which polymerase ribozyme fitness (log ratio) is reported for this variant? A46C C56G -1.37

Item under review: C11G A37U G71A C79A . Reported polymerase ribozyme fitness (log ratio)? -1.37

Which polymerase ribozyme fitness (log ratio) is listed for U21A G117U ? -1.55

Return reported polymerase ribozyme fitness (log ratio); argument: A16C C20U C70U -4.3

Which polymerase ribozyme fitness (log ratio) is reported for this variant? C8A G47U C49U G110U -3.49

Given U7A G19U C73G U92A , state its recorded polymerase ribozyme fitness (log ratio). -4.76

Please report the recorded polymerase ribozyme fitness (log ratio) for A119U C123A . -0.124

State the recorded polymerase ribozyme fitness (log ratio) for this entry: A16G G60A U81A G117U -4.21

Name the recorded polymerase ribozyme fitness (log ratio) for C15U A16U G57A C82U U112A . -5.23

# polymerase ribozyme fitness (log ratio) lookup, item C12U C20A C28U A37G G42A G45U A46U G48A C82U G110A A111U A119G -4.23

Look at this variant and give its reported polymerase ribozyme fitness (log ratio). U7G A84C U112C A119U 1.28

Param item = U14C ; retrieve measured polymerase ribozyme fitness (log ratio). -1.23

Need polymerase ribozyme fitness (log ratio), item G36U G39U G44A -4.17

Quick one: polymerase ribozyme fitness (log ratio) for C8G C79U G110C ? -4.01

Using the record for A16G C40G , report its polymerase ribozyme fitness (log ratio). -0.424

May I ask what polymerase ribozyme fitness (log ratio) has been recorded for C85U G110C C115U A121G ? -6.18

# input variant: C13U C104U ; wanted: its polymerase ribozyme fitness (log ratio) -0.259

Which polymerase ribozyme fitness (log ratio) is reported for this variant? A41C U81A U133G -2.53

Any idea what its polymerase ribozyme fitness (log ratio) is? The variant is C72G C85G A100C A121C -1.55
